meta.source: the supplement of paper PMC7661543

# Test system: SKBR3
# method.notes: relative cell number vs DMSO control (72 h) (% of DMSO); higher = less growth inhibition (more cells)
# condition.context: sgRNA knockout: sgNT, 10 nM
readout: relative cell number
Write the value as a bare number.

Which relative cell number value is on record for Nc1nc(Cl)nc2c1ncn2[C@@H]1O[C@H](CO)[C@@H](O)[C@@H]1F [Clofarabine] ?
65.5

Now the same for COc1cc(/C=C/C(=O)CC(=O)/C=C/c2ccc(O)c(OC)c2)ccc1O [Curcumin]
106

Now the same for CC(C)(C)OC(=O)CN(Cc1ccc(Cl)cc1)Cc1ccc([N+](=O)[O-])s1 [GSK4112]
87.6

Now the same for CC(C)n1c(/C=C/C(O)CC(O)CC(=O)O)c(-c2ccc(F)cc2)c2ccccc21 (stereo not drawn) [Fluvastatin]
64.9

Now the same for CC[C@H](C)C(=O)O[C@H]1C[C@@H](C)C=C2C=C[C@H](C)[C@H](CC[C@@H]3C[C@@H](O)CC(=O)O3)[C@H]21 [Lovastatin]
103

Now the same for CC(C)C[C@@H](C=O)NC(=O)[C@H](CC(C)C)NC(=O)[C@H](CC(C)C)NC(=O)OCc1ccccc1 [MG132]
111

Now the same for O=C(Cc1ccc(-c2ccc(OCCN3CCOCC3)cc2)cn1)NCc1ccccc1 [KX2391]
91.5

Now the same for CN1CCN(c2ccc(C(=O)Nc3n[nH]c4ccc(Cc5cc(F)cc(F)c5)cc34)c(NC3CCOCC3)c2)CC1 [Entrectinib]
113

Now the same for N#Cc1ccc(C(c2ccc(C#N)cc2)n2cncn2)cc1 [Letrozole]
97.5

Now the same for CCc1c2c(nc3ccc(O)cc13)-c1cc3c(c(=O)n1C2)COC(=O)[C@]3(O)CC [SN38]
35

Now the same for Nc1ccn([C@@H]2O[C@H](CO)[C@@H](O)C2(F)F)c(=O)n1 [Gemcitabine]
26.2

Now the same for COc1cc(-n2c(=S)[nH]c3ccccc3c2=O)c(Cl)cc1Cl [Mdivi1]
76

Now the same for CN(C)c1cc(NC(=O)CNC(C)(C)C)c(O)c2c1C[C@H]1C[C@H]3[C@H](N(C)C)C(O)=C(C(N)=O)C(=O)[C@@]3(O)C(O)=C1C2=O [Tigecycline]
92.5

Now the same for CCOc1ccccc1-n1c(C(C)N2CCN(C(=O)COc3ccc(Cl)cc3)CC2)nc2ccccc2c1=O (stereo not drawn) [Erastin]
111

Now the same for O=C(c1ccc(/C=C/c2n[nH]c3ccccc23)cc1)N1CCNCC1 [KW2449]
69

Now the same for CCC(C)SSc1ncc[nH]1 (stereo not drawn) [PX12]
95.4

Now the same for C[C@@H](Nc1cc(F)cc(F)c1)c1cc(C(=O)N(C)C)cc2c(=O)cc(N3CCOCC3)oc12 [AZD8186]
88.2

Now the same for Nc1ccccc1NC(=O)c1ccc(CNC(=O)OCc2cccnc2)cc1 [Entinostat]
76.3

Now the same for OCCn1cc(-c2ccc3c(c2)CC/C3=N\O)c(-c2ccncc2)n1 [GDC0879]
114

Now the same for CN(C)CC[C@H](CSc1ccccc1)Nc1ccc(S(=O)(=O)NC(=O)c2ccc(N3CCN(Cc4ccccc4-c4ccc(Cl)cc4)CC3)cc2)cc1[N+](=O)[O-] [ABT737]
84.5

Now the same for COc1cc2nc(N3CCCN(C)CC3)nc(NC3CCN(Cc4ccccc4)CC3)c2cc1OC
98.3

Now the same for Cc1cc(C2CCCCC2)n(O)c(=O)c1 [Ciclopirox]
105

Now the same for C[C@]12CC[C@@H]3c4ccc(O)cc4C[C@@H](CCCCCCCCC[S+]([O-])CCCC(F)(F)C(F)(F)F)[C@H]3[C@@H]1CC[C@@H]2O (stereo partly drawn) [Fulvestrant]
90.7

Now the same for Cn1nnc2c(C(N)=O)ncn2c1=O [Temozolomide]
111

Now the same for CC(=O)Nc1nc(C)c(S(=O)(=O)Nc2ccc(C(O)(C(F)(F)F)C(F)(F)F)cc2)s1 [SR1001]
104

Now the same for CS(=O)(=O)N1CCN(Cc2cc3nc(-c4cccc5[nH]ncc45)nc(N4CCOCC4)c3s2)CC1 [GDC0941]
96.1

Now the same for O=P1(N(CCCl)CCCl)NCCCO1 (stereo not drawn) [Cyclophosphamide]
88.4

Now the same for C[C@@H](Oc1cc(-c2cnn(C3CCNCC3)c2)cnc1N)c1c(Cl)ccc(F)c1Cl [Crizotinib]
92.7

Now the same for Cc1ccc(C(=O)N(CCCN)[C@@H](c2oc3cc(Cl)ccc3c(=O)c2Cc2ccccc2)C(C)C)cc1
15.6

Now the same for COc1cc2nccc(Oc3ccc(NC(=O)Nc4cc(C)on4)c(Cl)c3)c2cc1OC [Tivozanib]
103

Now the same for CC(C)(C)c1nc(-c2cccc(NS(=O)(=O)c3c(F)cccc3F)c2F)c(-c2ccnc(N)n2)s1 [Dabrafenib]
133

Now the same for N#Cc1ccc(COC[C@H]2O[C@@H](n3c(NCc4ccc(Cl)c(Cl)c4)nc4c(N)ncnc43)[C@H](O)[C@@H]2O)cc1
105

Now the same for Cc1sc2c(c1C)C(c1ccc(Cl)cc1)=N[C@@H](CC(=O)OC(C)(C)C)c1nnc(C)n1-2 [(+)-JQ1]
102
